target: Phosphatidylinositol 4,5-bisphosphate 3-kinase catalytic subunit beta isoform (Homo sapiens, UniProt P42338); assay: Inhibition of recombinant human myristoylated PI3Kbeta catalytic domain expressed in Rat1 cells assessed as reduction in Akt phosphorylation at […] residue after 1 hr by alpha screen Surefire assay; format: cell-based
Sequence (P42338 whole entry, the tested form may be a part, canonical isoform): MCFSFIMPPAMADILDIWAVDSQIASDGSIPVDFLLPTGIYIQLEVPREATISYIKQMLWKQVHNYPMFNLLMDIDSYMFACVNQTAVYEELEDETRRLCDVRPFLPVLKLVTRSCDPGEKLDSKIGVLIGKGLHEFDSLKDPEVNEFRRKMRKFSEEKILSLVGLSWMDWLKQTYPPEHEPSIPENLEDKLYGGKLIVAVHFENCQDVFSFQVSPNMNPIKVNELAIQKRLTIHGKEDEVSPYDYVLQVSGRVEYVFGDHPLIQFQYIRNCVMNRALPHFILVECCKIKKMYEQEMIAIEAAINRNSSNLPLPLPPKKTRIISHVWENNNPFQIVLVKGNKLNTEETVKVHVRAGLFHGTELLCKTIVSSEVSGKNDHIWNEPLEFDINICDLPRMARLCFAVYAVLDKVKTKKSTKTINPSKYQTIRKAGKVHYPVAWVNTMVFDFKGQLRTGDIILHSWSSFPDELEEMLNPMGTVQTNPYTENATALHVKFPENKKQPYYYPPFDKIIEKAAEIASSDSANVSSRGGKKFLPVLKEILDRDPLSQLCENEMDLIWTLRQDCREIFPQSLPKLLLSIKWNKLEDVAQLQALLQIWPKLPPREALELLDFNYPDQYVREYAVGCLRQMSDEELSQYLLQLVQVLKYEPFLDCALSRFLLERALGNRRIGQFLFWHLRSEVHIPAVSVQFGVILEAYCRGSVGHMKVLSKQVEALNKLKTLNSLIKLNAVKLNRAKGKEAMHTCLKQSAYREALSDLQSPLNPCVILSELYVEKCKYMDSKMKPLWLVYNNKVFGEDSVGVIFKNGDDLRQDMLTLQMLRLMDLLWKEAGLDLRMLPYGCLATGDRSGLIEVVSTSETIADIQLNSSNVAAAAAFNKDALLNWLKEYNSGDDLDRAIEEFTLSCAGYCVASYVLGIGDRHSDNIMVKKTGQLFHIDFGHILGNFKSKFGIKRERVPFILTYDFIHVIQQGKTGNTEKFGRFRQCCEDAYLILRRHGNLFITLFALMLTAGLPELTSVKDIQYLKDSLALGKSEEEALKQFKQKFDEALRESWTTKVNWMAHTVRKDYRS
Kindly supply the reported IC50 values for the records listed here.

Ask: Find the recorded IC50 belonging to COc1ccc(N2CCc3ncnc(-c4cccc(OC5CCN(C(C)=O)CC5)c4)c3C2)cn1 and report it.
Result: > 10 µM

Ask: // IC50 lookup, key: CCC(=O)N1CC[C@H](Oc2ncnc3c2CN(c2ccc(OC)nc2)CC3)C1
Result: > 10 µM

Ask: Looking for the measured IC50 of COc1ccc(N2CCc3ncnc(-c4cccc(C(=O)N5CCN(C(C)=O)CC5)c4)c3C2)cn1 , can you help?
Result: > 10 µM
